// provenance: patent US20240270821A1

- system under test: T1, human GIP receptor (human) (UniProt P48546)
- T1 sequence (looked up): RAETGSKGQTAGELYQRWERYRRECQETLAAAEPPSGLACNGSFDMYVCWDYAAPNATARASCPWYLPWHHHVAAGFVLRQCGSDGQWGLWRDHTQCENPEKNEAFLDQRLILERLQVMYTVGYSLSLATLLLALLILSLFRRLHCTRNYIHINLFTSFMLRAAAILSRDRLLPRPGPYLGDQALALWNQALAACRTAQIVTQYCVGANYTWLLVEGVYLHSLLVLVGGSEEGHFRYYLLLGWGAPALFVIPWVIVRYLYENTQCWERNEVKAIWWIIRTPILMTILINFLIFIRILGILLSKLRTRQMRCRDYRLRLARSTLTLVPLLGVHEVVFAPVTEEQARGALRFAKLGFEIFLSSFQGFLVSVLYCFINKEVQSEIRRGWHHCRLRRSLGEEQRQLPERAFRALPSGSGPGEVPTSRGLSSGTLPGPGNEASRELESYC
- protocol notes: cell-based or functional assay
endpoint name: log10 Relative cAMP EC50 (log10 of the value in nM)
Reminder: these figures are log10 of reported Relative cAMP EC50, in nM before transformation.

binder	endpoint name	endpoint value
YXQGTFTSDFSXXLDKKAQXAFIEYLLAGGPSSGEPPPEGE (synthetic construct; SITE 2: note = 2-Aminoisobutyric Acid; SITE 12: note = L-ornithine; SITE 13: note = alpha-methyl-leucine; SITE 17: note = Lysine is chemically modified through conjugation of the epsilon-amino group of the Lysine side chain with (2-[2-(2-Amino-ethoxy)-ethoxy]-acetyl)-(gamma-Glu)) [Example 98]	log10 Relative cAMP EC50	-0.75
YXQGTXTSDXXIXLDXKAQXQFIEXLQEGGPSSGEPPPEGTE (synthetic construct; SITE 2: note = 2-Aminoisobutyric Acid; SITE 6: note = alpha-methyl-2-fluoro-L-phenylalanine; SITE 10: note = 3-(4-Pyridyl)-L-alanine; SITE 11: note = alpha-methyl-L-serine; SITE 13: note = alpha-methyl-leucine; SITE 16: note = L-ornithine; SITE 17: note = Lysine is chemically mo) [Example 528]	log10 Relative cAMP EC50	-1.48
YXQGTXTSDYSIXLDKKAQXAFIEYLEEGGPSSGAPPPE (synthetic construct; SITE 2: note = 2-Aminoisobutyric Acid; SITE 6: note = alpha-methyl-L-phenylalanine; SITE 13: note = alpha-methyl-leucine; SITE 17: note = Lysine is chemically modified through conjugation of the epsilon-amino group of the Lysine side chain with (2-[2-(2-Amino-ethoxy)-ethoxy]-ace)) [Example 396]	log10 Relative cAMP EC50	-1.62
YXQGTXTSDXXIXLDXKAQXEFIEXLIEGGPSSGEPPPSGS (not fully specified; synthetic construct; SITE 2: note = 2-Aminoisobutyric Acid; SITE 6: note = alpha-methyl-2-fluoro-L-phenylalanine; SITE 10: note = 3-(4-Pyridyl)-L-alanine; SITE 11: note = alpha-methyl-L-serine; SITE 13: note = alpha-methyl-leucine; SITE 16: note = L-ornithine; SITE 17: note = Lysine is chemically mo) [Example 1208]	log10 Relative cAMP EC50	-2.04
YXQGTFTSDFSKXLDKKAQXAFIEYLLEXGPSSGAPPPSGS (Aib, αMeL, acylated Lys, C-terminal amide; synthetic construct; SITE 2: note = 2-Aminoisobutyric Acid; SITE 13: note = alpha-methyl-leucine; SITE 17: note = Lysine is chemically modified through conjugation of the epsilon-amino group of the Lysine side chain with (2-[2-(2-Amino-ethoxy)-ethoxy]-acetyl)-(gamma-Glu)-CO-(CH2) 18-CO2H; SITE 20: n) [Example 45]	log10 Relative cAMP EC50	-0.95

Turning now to a further binder:
What does the record list as log10 Relative cAMP EC50 for YXQGTFTSDFSXXLDKKAQXAFIEYLLEGGXSSGAPPPGGS (Aib, Orn, αMeL, Hyp; lipidated Lys; C-terminal amide; synthetic construct; SITE 2: note = 2-Aminoisobutyric Acid; SITE 12: note = L-ornithine; SITE 13: note = alpha-methyl-leucine; SITE 17: note = Lysine is chemically modified through conjugation of the epsilon-amino group of the Lysine side chain with (2-[2-(2-Amino-ethoxy)-ethoxy]-acetyl)-(gamma-Glu)) [Example 234] ?
-0.49
